- subjectOfTest: T1, TNFR1 (Homo sapiens, UniProt P19438)
- T1 chain: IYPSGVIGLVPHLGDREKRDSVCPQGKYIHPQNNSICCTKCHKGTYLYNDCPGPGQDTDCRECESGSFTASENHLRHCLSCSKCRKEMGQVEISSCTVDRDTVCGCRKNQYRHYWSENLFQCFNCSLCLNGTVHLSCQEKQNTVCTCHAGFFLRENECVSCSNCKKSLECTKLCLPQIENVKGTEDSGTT
- assayInfo: yeast display SC50
property: apparent Kd (screen) (pM)

Sample records with apparent Kd (screen):
E83K (designed binder) SMEEEVEKAAKEYEKKKKEAIEKHLEKLKAKDKEAAERFLKELEEAAKEYAKDEAKTMSEEEAKRRAKKYKEKVLLSELSEEKQKEIKEAEEKLVRTILKYVEEAAK : 593
T97R (designed binder) SMEEEVEKAAKEYEKKKKEAIEKHLEKLKAKDKEAAERFLKELEEAAKEYAKDEAKTMSEEEAKRRAKKYKEKVLLSELSEEEQKEIKEAEEKLVRRILKYVEEAAK : 490

a. K29H (designed binder) SMEEEVEKAAKEYEKKKKEAIEKHLEKLHAKDKEAAERFLKELEEAAKEYAKDEAKTMSEEEAKRRAKKYKEKVLLSELSEEEQKEIKEAEEKLVRTILKYVEEAAK
b. K73Q (designed binder) SMEEEVEKAAKEYEKKKKEAIEKHLEKLKAKDKEAAERFLKELEEAAKEYAKDEAKTMSEEEAKRRAKKYKEQVLLSELSEEEQKEIKEAEEKLVRTILKYVEEAAK
Lookup: Looking at a and b , which one comes out lower in apparent Kd (screen) terms? Choose, then provide that item's label.
Found: a
(a: 593 pM, b: 1050 pM)

A. E22W (designed binder) SMEEEVEKAAKEYEKKKKEAIWKHLEKLKAKDKEAAERFLKELEEAAKEYAKDEAKTMSEEEAKRRAKKYKEKVLLSELSEEEQKEIKEAEEKLVRTILKYVEEAAK
B. K100R (designed binder) SMEEEVEKAAKEYEKKKKEAIEKHLEKLKAKDKEAAERFLKELEEAAKEYAKDEAKTMSEEEAKRRAKKYKEKVLLSELSEEEQKEIKEAEEKLVRTILRYVEEAAK
Lookup: Given the two records A and B , choose the one whose apparent Kd (screen) value is lower. Lab log: write the label of the selected item as the result.
Found: A
(A: 593 pM, B: 1270 pM)
